molecular target: XIIIE82 /H8-monoclonal antibody; assay: Competitive binding assay according to the method of Muller, XIIIE82 /H8; design: species or system mouse; conditions: [3H]nitrendipine-XIIIE82 /H8-monoclonal antibody complex; read-out: average apparent dissociation constant (Kd)
readoutType: Kd (nM)
Give bare numbers, in nM.

What value of Kd has been recorded for this entry: CCOC(=O)C1=C(C)NC(C)=C(C(=O)OC)C1c1cccc([N+](=O)[O-])c1 (stereo not shown) [[^3 H]Nitrendipine]
26

====

test system: monoclonal antibody XIIIE82 /H8; assay: Binding of radioactive Ca2+ channel blockers to monoclonal antibody XIIIE82 /H8-Sepharose 6MB beads; design: species or system mouse; settings: 1.0 nM concentration
readoutType: ability to bind to monoclonal antibody XIIIE82 /H8-Sepharose 6MB beads (in words)

[
  {
    "compound": "CCOC(=O)C1=C(C)NC(C)=C(C(=O)OC)C1c1cccc([N+](=O)[O-])c1 (stereo not drawn) [[^3 H]Nitrendipine]",
    "val": "specifically bind"
  },
  {
    "compound": "COc1ccc([C@@H]2Sc3ccccc3N(CCN(C)C)C(=O)[C@@H]2OC(C)=O)cc1 [[^3 H]Diltiazem]",
    "val": "did not bind"
  },
  {
    "compound": "COC(=O)C1=C(C)NC(C)=C(C(=O)OC(C)C)C1c1cccc2nonc12 (single isomer, unassigned) [[^3 H]PN200-110]",
    "val": "specifically bind"
  },
  {
    "compound": "COC(=O)C1=C(C)NC(C)=C(C(=O)OC)C1c1ccccc1N=C=S [[^3 H]Nifedipine-Analog]",
    "val": "specifically bind"
  }
]

Here are 2 compounds. What values of ability to bind to monoclonal antibody XIIIE82 /H8-Sepharose 6MB beads (in words) were reported for them?
1. COCCOC(=O)C1=C(C)NC(C)=C(C(=O)OC(C)C)C1c1cccc([N+](=O)[O-])c1 (stereo not drawn) [[^3 H]Nimodipine]
2. COc1ccc(CCN(C)CCCC(C#N)(c2ccc(OC)c(OC)c2)C(C)C)cc1OC (stereo not drawn) [[^3 H]Verapamil]

["specifically bind", "did not bind"]
